These data points were gathered from ChEMBL document CHEMBL2203049.

# Measurement target: Cytochrome P450 2D6 (Homo sapiens)
# Sequence (P10635 whole entry): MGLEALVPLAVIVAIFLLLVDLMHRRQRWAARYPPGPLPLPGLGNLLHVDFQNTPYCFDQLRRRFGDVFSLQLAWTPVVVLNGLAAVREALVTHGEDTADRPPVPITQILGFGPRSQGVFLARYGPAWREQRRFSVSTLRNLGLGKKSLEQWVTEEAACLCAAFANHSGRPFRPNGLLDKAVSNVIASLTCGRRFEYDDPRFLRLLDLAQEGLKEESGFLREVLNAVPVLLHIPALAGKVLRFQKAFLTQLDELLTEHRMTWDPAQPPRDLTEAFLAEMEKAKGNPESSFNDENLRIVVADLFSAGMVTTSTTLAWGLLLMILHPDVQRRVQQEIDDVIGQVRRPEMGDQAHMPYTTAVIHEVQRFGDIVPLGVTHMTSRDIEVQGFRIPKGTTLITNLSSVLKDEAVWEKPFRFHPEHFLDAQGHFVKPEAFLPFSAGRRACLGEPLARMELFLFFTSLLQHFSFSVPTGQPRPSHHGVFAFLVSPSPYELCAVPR
Readout name: IC50 (nM)
Give the value, in units of nM, as a plain number.

Record lookup: for Cytochrome P450 2D6 (Homo sapiens), what IC50 belongs to COC(=O)C(C)(C)C(c1ccc(Nc2ccccc2)cc1)n1cncn1 (stereo unspecified) ?
1300

###

# Measurement target: UniProt P33261
Readout name: pIC50
Kindly note that pIC50 refers to -log10 of the concentration in mol/L and answer with the value alone.

Record lookup: for UniProt P33261, what pIC50 belongs to COC(=O)C(C)(C)C(c1ccc(Nc2ccccc2)cc1)n1cncn1 (stereo unspecified) ?
5.38

###

# Measurement target: CYP2C19 (Homo sapiens, UniProt P33261)
# Sequence (P33261 whole entry): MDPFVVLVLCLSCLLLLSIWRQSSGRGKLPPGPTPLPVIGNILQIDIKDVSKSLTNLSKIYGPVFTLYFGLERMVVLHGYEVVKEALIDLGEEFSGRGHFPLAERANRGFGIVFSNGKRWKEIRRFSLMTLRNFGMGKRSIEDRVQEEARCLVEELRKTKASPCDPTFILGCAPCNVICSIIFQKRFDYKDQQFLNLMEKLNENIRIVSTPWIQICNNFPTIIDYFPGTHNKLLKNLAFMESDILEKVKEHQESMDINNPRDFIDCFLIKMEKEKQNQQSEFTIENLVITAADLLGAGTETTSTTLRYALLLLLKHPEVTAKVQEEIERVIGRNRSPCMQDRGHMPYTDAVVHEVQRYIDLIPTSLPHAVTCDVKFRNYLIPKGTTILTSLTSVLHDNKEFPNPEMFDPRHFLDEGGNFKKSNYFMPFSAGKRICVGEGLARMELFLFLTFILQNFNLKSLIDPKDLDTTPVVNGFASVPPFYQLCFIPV
# Procedure summary: Inhibition of CYP2C19 in human liver microsomes at 0.4 uM
# Assay type: ADME, Microsome
Readout name: inhibition at 0.4 µM (%)
Give the value, in units of %, as a plain number.

Compound: C[C@H]([C@@H](c1ccc(Nc2nc3ccccc3s2)cc1)n1cncn1)N(C)C
Measurement target: CYP2C19 (Homo sapiens, UniProt P33261)
inhibition at 0.4 µM [%]: 17

Okay, now this compound:
Record lookup: for CYP2C19 (Homo sapiens, UniProt P33261), what inhibition at 0.4 µM belongs to COC(=O)C(C)(C)C(c1ccc(Nc2ccccc2)cc1)n1cncn1 (configuration not stated) ?
19
